Target: PI3Kγ (Homo sapiens)
Construct: purchased Merck Millipore
Sequence (P48736 whole entry): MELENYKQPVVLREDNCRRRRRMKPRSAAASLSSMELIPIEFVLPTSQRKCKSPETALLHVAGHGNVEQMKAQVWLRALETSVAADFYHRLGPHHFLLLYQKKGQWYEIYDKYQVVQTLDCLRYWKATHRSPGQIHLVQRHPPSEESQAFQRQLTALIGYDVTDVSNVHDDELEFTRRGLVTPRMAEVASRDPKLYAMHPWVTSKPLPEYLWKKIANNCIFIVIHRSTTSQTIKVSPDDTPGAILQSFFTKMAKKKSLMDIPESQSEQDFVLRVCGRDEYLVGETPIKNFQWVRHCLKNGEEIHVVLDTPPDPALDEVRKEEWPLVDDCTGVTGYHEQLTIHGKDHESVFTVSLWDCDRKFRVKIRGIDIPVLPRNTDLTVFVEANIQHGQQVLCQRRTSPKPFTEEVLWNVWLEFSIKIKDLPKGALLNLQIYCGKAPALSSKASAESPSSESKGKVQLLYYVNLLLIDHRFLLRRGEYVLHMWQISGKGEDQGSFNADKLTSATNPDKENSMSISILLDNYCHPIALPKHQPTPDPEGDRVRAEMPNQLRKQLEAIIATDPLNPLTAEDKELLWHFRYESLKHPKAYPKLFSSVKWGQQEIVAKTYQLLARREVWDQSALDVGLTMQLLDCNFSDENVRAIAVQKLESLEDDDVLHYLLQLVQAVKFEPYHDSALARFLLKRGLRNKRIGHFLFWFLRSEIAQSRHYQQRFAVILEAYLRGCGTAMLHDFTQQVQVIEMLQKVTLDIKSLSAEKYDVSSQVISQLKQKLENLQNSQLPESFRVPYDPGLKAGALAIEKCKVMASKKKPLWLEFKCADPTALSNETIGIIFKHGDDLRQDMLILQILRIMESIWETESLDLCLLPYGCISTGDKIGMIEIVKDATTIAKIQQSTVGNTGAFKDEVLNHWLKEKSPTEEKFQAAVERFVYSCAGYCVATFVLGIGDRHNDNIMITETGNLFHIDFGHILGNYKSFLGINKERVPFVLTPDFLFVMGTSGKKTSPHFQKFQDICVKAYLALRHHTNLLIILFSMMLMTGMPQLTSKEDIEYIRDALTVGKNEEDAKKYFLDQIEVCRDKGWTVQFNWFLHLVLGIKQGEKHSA
Test: In vitro PI3K inhibition assay (ADP-Glo kinase assay), PI3Kγ
Type: biochemical
Settings: ratio IC50 PI3Kγ / IC50 PI3Kδ
Protocol: All compounds were tested in a biochemical assay that measured the inhibition of phosphatidylinositol […] production by PI3K isoforms using the ADP-Glo kinase assay (Promega). In addition, the effects of synthesized compounds on B cell proliferation were measured. The potency and selectivity of compounds were assessed by measuring the ability of PI3K kinases to convert ATP to ADP during an enzymatic reaction in the presence of decreasing doses of tested compounds. […]
Assay Metric: Fold Selectivity γ/δ
Please reply with the value in numeric form only.

Reference set (3 entries):
- Compound: "OC1CCN(Cc2cc3nc(-n4c(C(F)F)nc5ccccc54)cc(N4CCOCC4)n3n2)CC1 [Compound 34]"
  Fold Selectivity γ/δ: 7.7
- Compound: "CC(=O)NC1CCN(Cc2cc3nc(-n4c(C(F)F)nc5ccccc54)cc(N4CCOCC4)n3n2)CC1 [Compound 35]"
  Fold Selectivity γ/δ: 3.4
- Compound: "OCC1CCN(Cc2cc3nc(-n4c(C(F)F)nc5ccccc54)cc(N4CCOCC4)n3n2)CC1 [Compound 31]"
  Fold Selectivity γ/δ: 14

Now consider the entry below.
Challenge: Recorded Fold Selectivity γ/δ for O=C(C1CC1)N1CCN(Cc2cc3nc(-n4c(C(F)F)nc5ccccc54)cc(N4CCOCC4)n3n2)CC1 [Compound 18] , please?
Response given: 6.5
